target: MC5-R (Homo sapiens, UniProt P33032); construct: expressed in transfected cells; host or cells: HEK-293; assay: Competitive inhibition binding assay using [I125]-NDP-α-MSH, HEK-293 membranes, recombinant hMC5-R
Sequence (P33032 whole entry): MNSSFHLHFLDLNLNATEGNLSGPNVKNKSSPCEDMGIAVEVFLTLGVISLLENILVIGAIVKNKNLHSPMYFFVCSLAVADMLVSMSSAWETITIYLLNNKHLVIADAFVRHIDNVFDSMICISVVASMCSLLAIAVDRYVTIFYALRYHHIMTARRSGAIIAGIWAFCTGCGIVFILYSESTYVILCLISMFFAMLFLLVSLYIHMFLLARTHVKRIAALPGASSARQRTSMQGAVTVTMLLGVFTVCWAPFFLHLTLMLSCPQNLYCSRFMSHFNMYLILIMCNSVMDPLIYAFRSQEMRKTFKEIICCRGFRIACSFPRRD
resultType: Ki

# annotated cases, reported Ki shown
{"compound": "NCCNCCCC[C@H]1CN(C(=O)[C@H](N)Cc2ccc(Cl)cc2Cl)[C@H](CC2CCCCC2)CN1C(=O)[C@H](N)Cc1ccc(Cl)cc1Cl", "resultType": "Ki", "valueReported": "139 nM"}
{"compound": "Cc1ccc(C[C@@H](N)CN2C[C@@H](C)N(C(=O)Cc3ccc4ccccc4c3)C[C@@H]2CCCNC2CCCCC2N)c(C)c1 (stereo partly drawn)", "resultType": "Ki", "valueReported": "38 nM"}

Q: Quick check: Ki of Cc1ccc(C[C@@H](N)CN2C[C@@H](C)N(C(=O)Cc3ccc4ccccc4c3)C[C@@H]2CCCNCCN)c(C)c1 ?
Result: 20 nM

----------
molecular target: MC3-R (Homo sapiens, UniProt P41968); construct: expressed in transfected cells; host or cells: HEK-293; test: Competitive inhibition binding assay using [I125]-NDP-α-MSH, HEK-293 membranes, recombinant hMC3-R; conditions: 1 μM compound
Sequence (P41968 whole entry): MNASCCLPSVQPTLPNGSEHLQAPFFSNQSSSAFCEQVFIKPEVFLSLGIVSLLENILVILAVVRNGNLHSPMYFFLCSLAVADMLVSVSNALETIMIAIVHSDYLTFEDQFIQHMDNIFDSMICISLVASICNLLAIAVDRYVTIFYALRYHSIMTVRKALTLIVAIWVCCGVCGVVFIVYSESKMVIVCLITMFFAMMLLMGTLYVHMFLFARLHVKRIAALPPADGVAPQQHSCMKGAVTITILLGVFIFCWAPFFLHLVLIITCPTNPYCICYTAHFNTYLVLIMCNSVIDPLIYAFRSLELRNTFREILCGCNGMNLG
resultType: inhibition at 1 µM (%)
One number for each entry, in %.

# annotated cases, reported inhibition at 1 µM shown
{"molecule": "Cc1ccc(C[C@H](CN2C[C@@H](C)N(C(=O)Cc3ccc4ccccc4c3)C[C@@H]2CCCN(C)CCN(C)C)N(C)C)c(C)c1", "inhibition at 1 µM [%]": 9}
{"molecule": "Cc1ccc(C[C@@H](N)CN2C[C@@H](C)N(C(=O)Cc3ccc4ccccc4c3)C[C@@H]2CCCNCCN)c(C)c1", "inhibition at 1 µM [%]": 82}

Hello, I would appreciate it if you could give inhibition at 1 µM for each entry below.
1. Cc1ccc(C[C@@H](N)CN2C[C@@H](C)N(C(=O)Cc3ccc4ccccc4c3)C[C@@H]2CCCNC2CCCCC2N)c(C)c1 (stereo partly drawn)
2. C[C@@H]1CN(C(=O)[C@H](N)Cc2ccc(Cl)cc2Cl)[C@@H](CCCNCCN)CN1C(=O)[C@H](N)Cc1ccc(Cl)cc1Cl

Result:
1. 47
2. 89

Hello, I would appreciate it if you could give inhibition at 1 µM for each entry below.
1. CC(C)C[C@@H]1CN(C(=O)[C@H](N)Cc2ccc(Cl)cc2Cl)[C@@H](CCCNCCN)CN1C(=O)[C@H](N)Cc1ccc(Cl)cc1Cl
2. NCCNCCC[C@H]1CN(C(=O)[C@H](N)Cc2ccc(Cl)cc2Cl)[C@H](CC2CCCCC2)CN1C(=O)[C@H](N)Cc1ccc(Cl)cc1Cl

Result:
1: 41; 2: 36

----------
target: hMC1-R (Homo sapiens, UniProt Q01726); construct: expressed in transfected cells; host or cells: HEK-293; assay: Competitive inhibition binding assay using [I125]-NDP-α-MSH, HEK-293 membranes, recombinant hMC1-R; conditions: human recombinant MC1-R
Sequence (Q01726 whole entry): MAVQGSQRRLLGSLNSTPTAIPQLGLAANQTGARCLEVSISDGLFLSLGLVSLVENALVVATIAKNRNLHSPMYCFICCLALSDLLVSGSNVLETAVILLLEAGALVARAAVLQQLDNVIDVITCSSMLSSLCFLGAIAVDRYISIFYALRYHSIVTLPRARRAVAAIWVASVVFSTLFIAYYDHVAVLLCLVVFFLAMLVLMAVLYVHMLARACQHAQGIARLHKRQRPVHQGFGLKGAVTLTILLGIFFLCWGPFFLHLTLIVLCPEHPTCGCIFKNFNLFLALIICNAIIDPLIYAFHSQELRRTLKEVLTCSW
resultType: Ki

# annotated cases, reported Ki shown
{"structure": "CC(C)C[C@@H]1CN(C(=O)[C@H](N)Cc2ccc3ccccc3c2)[C@@H](CCCCNCCN)CN1C(=O)[C@H](N)Cc1ccc2ccccc2c1", "valueReported": "215 nM"}
{"structure": "NCCNCCCC[C@H]1CN(C(=O)[C@H](N)Cc2ccc(Cl)cc2Cl)[C@H](CC2CCCCC2)CN1C(=O)[C@H](N)Cc1ccc(Cl)cc1Cl", "valueReported": "270 nM"}
{"structure": "CC(C)C[C@@H]1CN(C(=O)[C@H](N)Cc2ccc3ccccc3c2)[C@@H](CCCNCCN)CN1C(=O)[C@H](N)Cc1ccc2ccccc2c1", "valueReported": "135 nM"}

# next molecule below
Q: Can you look up Ki on hMC1-R (Homo sapiens, UniProt Q01726) for CC(C)C[C@@H]1CN(C[C@H](N)Cc2ccc(Cl)cc2Cl)[C@@H](CCCNCCN)CN1C(=O)Cc1ccc2ccccc2c1 ?
Result: 359 nM

The reported measurements were obtained from patent US7968548B2.
